# procedure_summary: Stability at 40 ± 2° C. & 75 ± 5% RH
# Assay type: physicochemical
# experimental_context: Initial
measured_quantity: Moisture Content (%)
State the answer as a number, implicitly in %.

Consider CO/N=C(\C(=O)N[C@@H]1C(=O)N2C(C(=O)[O-])=C(CSC(=O)c3ccco3)CS[C@H]12)c1csc(N)n1.[Na+] [Form A, Ceftiofur sodium] . Its measured Moisture Content is 1.05

----------
# procedure_summary: Stability at 40 ± 2° C. & 75 ± 5% RH
# Type: physicochemical
# experimental_context: 3 Months
measured_quantity: Total RS (Related substances) (%)
State the answer as a number, implicitly in %.

Consider CO/N=C(\C(=O)N[C@@H]1C(=O)N2C(C(=O)[O-])=C(CSC(=O)c3ccco3)CS[C@H]12)c1csc(N)n1.[Na+] [Form A, Ceftiofur sodium] . Its measured Total RS (Related substances) is 0.19

----------
# procedure_summary: Stability at 25 ± 2° C. & 60 ± 5% RH
# Assay type: physicochemical
# experimental_context: 3 Months
measured_quantity: Moisture Content (%)
State the answer as a number, implicitly in %.

Consider CO/N=C(\C(=O)N[C@@H]1C(=O)N2C(C(=O)[O-])=C(CSC(=O)c3ccco3)CS[C@H]12)c1csc(N)n1.[Na+] [Form A, Ceftiofur sodium] . Its measured Moisture Content is 1.05

----------
# procedure_summary: Stability at 25 ± 2° C. & 60 ± 5% RH
# Assay type: physicochemical
# experimental_context: 6 month
measured_quantity: Moisture Content

Consider CO/N=C(\C(=O)N[C@@H]1C(=O)N2C(C(=O)[O-])=C(CSC(=O)c3ccco3)CS[C@H]12)c1csc(N)n1.[Na+] [Form A, Ceftiofur sodium] . Its measured Moisture Content is 1.11%

----------
# procedure_summary: Stability at 25 ± 2° C. & 60 ± 5% RH
# Type: physicochemical
# experimental_context: 6 month
# Procedure: In still another embodiment of the present invention, novel anhydrous crystalline polymorph of Ceftiofur sodium (Form A) of formula (I) having the following X-ray diffraction characteristic peaks (±0.2°2θ): 5.68, 6.54, 8.84, 12.82, 13.16, 16.33, 17.36, 18.71, 18.94, 20.25, 21.53, 22.11, 22.79, 24.44, 24.88, 25.46, and 27.00 in °2θ. […] The moisture content of Ceftiofur sodium is measured by using Karl-Fisher technique. […]
measured_quantity: Total RS (Related substances) (%)
State the answer as a number, implicitly in %.

Consider CO/N=C(\C(=O)N[C@@H]1C(=O)N2C(C(=O)[O-])=C(CSC(=O)c3ccco3)CS[C@H]12)c1csc(N)n1.[Na+] [Form A, Ceftiofur sodium] . Its measured Total RS (Related substances) is 0.21

----------
# procedure_summary: Stability at 25 ± 2° C. & 60 ± 5% RH
# Format: physicochemical
# experimental_context: Initial
measured_quantity: Moisture Content (%)
State the answer as a number, implicitly in %.

Consider CO/N=C(\C(=O)N[C@@H]1C(=O)N2C(C(=O)[O-])=C(CSC(=O)c3ccco3)CS[C@H]12)c1csc(N)n1.[Na+] [Form A, Ceftiofur sodium] . Its measured Moisture Content is 1.05

----------
# procedure_summary: Stability at 25 ± 2° C. & 60 ± 5% RH
# Assay type: physicochemical
# experimental_context: 3 Months
measured_quantity: Total RS (Related substances) (%)
State the answer as a number, implicitly in %.

Consider CO/N=C(\C(=O)N[C@@H]1C(=O)N2C(C(=O)[O-])=C(CSC(=O)c3ccco3)CS[C@H]12)c1csc(N)n1.[Na+] [Form A, Ceftiofur sodium] . Its measured Total RS (Related substances) is 0.16
